test system: MHH-CALL-4; assay: selective drug sensitivity score (sDSS, relative to normal bone marrow) (sDSS (score)); higher = more potent and effective on the cell line relative to normal bone marrow cells; details: 72 h;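 also: ALL cell lines in 384-well plates, five doses spanning 10,000-fold, each plate scaled between vehicle and 100 µmol/L benzalkonium chloride controls, sDSS an adapted area-under-curve metric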
Output criterion met for selective drug sensitivity score not less than 3; output criterion not met otherwise.

{"compound": "Cc1cn(-c2cc(NC(=O)c3ccc(C)c(Nc4nccc(-c5cccnc5)n4)c3)cc(C(F)(F)F)c2)cn1 [Nilotinib] (top concentration 10000 nM)", "class": "criterion not met"}
{"compound": "CCS(=O)(=O)c1cccc(-c2cc(C(=O)NC3CCN(C)CC3)c(C)c3[nH]c4ncc(C)cc4c23)c1 [TAK-901] (top concentration 1000 nM)", "class": "criterion met"}
{"compound": "Cn1ncnc1[C@H]1c2n[nH]c(=O)c3cc(F)cc(c23)N[C@@H]1c1ccc(F)cc1 [Talazoparib] (top concentration 1000 nM)", "class": "criterion met"}
{"compound": "C[C@H]1C[C@@H]2[C@H]([C@@H](O)C[C@@]3(C)[C@H]2CC[C@]3(O)C(=O)CO)[C@@]2(C)C=CC(=O)C=C12 [Methylprednisolone] (top concentration 10000 nM)", "class": "criterion met"}
{"compound": "CCNC(=O)c1noc(-c2cc(C(C)C)c(O)cc2O)c1-c1ccc(CN2CCOCC2)cc1 [Luminespib] (top concentration 1000 nM)", "class": "criterion not met"}
{"compound": "CC(C)N(C[C@H]1O[C@@H](n2cnc3c(N)ncnc32)[C@H](O)[C@@H]1O)[C@H]1C[C@@H](CCc2nc3cc(C(C)(C)C)ccc3[nH]2)C1 [Pinometostat] (top concentration 1000 nM)", "class": "criterion not met"}
{"compound": "CCCCCOC(=O)Nc1nc(=O)n([C@@H]2O[C@H](C)[C@@H](O)[C@H]2O)cc1F [Capecitabine] (top concentration 10000 nM)", "class": "criterion not met"}

---

system: KARPAS-45; experiment: selective drug sensitivity score (sDSS, relative to normal bone marrow) (sDSS (score)); higher = more potent and effective on the cell line relative to normal bone marrow cells; conditions: 72 h
Output class 1 for selective drug sensitivity score not less than 5; output class 0 otherwise.

{"compound": "COc1cccc2c1c(O)c(C(=O)N(C)c1ccc(C(F)(F)F)cc1)c(=O)n2C [Tasquinimod] (top concentration 10000 nM)", "class": "class 0"}
{"compound": "CNS(=O)(=O)Nc1nccc(Cc2c(C)c3ccc(Oc4ncccn4)cc3oc2=O)c1F (top concentration 1000 nM)", "class": "class 0"}
{"compound": "CN(C)Cc1ccc(S(=O)(=O)n2ccc(/C=C/C(=O)NO)c2)cc1 [Resminostat] (top concentration 10000 nM)", "class": "class 1"}
{"compound": "CC[C@]1(O)C[C@H]2CN(CCc3c([nH]c4ccccc34)[C@@](C(=O)OC)(c3cc4c(cc3OC)N(C=O)[C@H]3[C@@](O)(C(=O)OC)[C@H](OC(C)=O)[C@]5(CC)C=CCN6CC[C@]43[C@@H]65)C2)C1 [Vincristine] (top concentration 1000 nM)", "class": "class 1"}
{"compound": "CCS(=O)(=O)c1cccc(-c2cc(C(=O)NC3CCN(C)CC3)c(C)c3[nH]c4ncc(C)cc4c23)c1 [TAK-901] (top concentration 1000 nM)", "class": "class 1"}
{"compound": "NC(=O)Nc1cc(-c2cccc(F)c2)sc1C(=O)N[C@H]1CCCNC1 [AZD7762] (top concentration 1000 nM)", "class": "class 0"}

Origin of measurements: the supplement of paper PMC8967900
